test system: HCC1569; assay: cell number relative to DMSO (% of DMSO); higher = more cells (less growth inhibition / toxicity); details: concentration: 10 µM; 24 h
Structures can show the parent of a compound that is named as a salt.
Observation Type: cell number
// print number alone

Worked examples, 7 compounds total:
Cl.O=c1n(CCCN2CCN(c3cccc(Cl)c3)CC2)nc2ccccn12 [Trazodone hydrochloride]    102
CC(C=CC1(O)C(C)=CC(=O)CC1(C)C)=CC(=O)O (racemic)    103
CCC12CCCN3CCc4c(n(c5ccccc45)C(O)(C(=O)OC)C1)C32 (stereo not drawn)    101
Oc1cc2c(cc1O)CN(C(=S)NCCc1ccc(Cl)cc1)CCC2 [Capsazepine]    106
CN1C(C(=O)Nc2ccccn2)=C(O)c2ccccc2S1(=O)=O    102
CC(C(O)c1ccc(O)cc1)N1CCC(Cc2ccccc2)CC1 (stereo not drawn) [Ifenprodil tartrate]    104
COc1cc(C(=O)NS(=O)(=O)c2ccccc2C)ccc1Cc1cn(C)c2ccc(NC(=O)OC3CCCC3)cc12    101

Prompt: Find the measured cell number: item COc1ccc(C(=O)NCc2ccc(OCCN(C)C)cc2)cc1OC [Itopride] , target or system HCC1569.
Completion: 101

* * *

tested on: HCC1569; assay: H1.0 immunofluorescence intensity relative to DMSO (% of DMSO); higher = stronger H1.0 induction, active = 140 or more; conditions: concentration: 10 µM; 24 h
Give 1 when the value for H1.0 immunofluorescence intensity is at least 100. Give -1 when it is less.

As a guide, the following entries are already answered.
Cn1c(=O)[nH]c2ncn(C)c2c1=O    -1
N[C@@H](COP(=O)(O)O)C(=O)O    -1
CCOc1nc(NC(=O)Cc2cc(OC)ccc2OC)cc(N)c1C#N    1

Now take the following compound into account.
Prompt: Please check the record CCCCCCCCC=CCCCCCCCCCCC(=O)O [12(Z) Heneicosenoic acid] and state if its H1.0 immunofluorescence intensity is at or above 100.
Completion: 1

* * *

# maps each entry to its cell number
tested on: HCC1569; assay: cell number relative to DMSO (% of DMSO); higher = more cells (less growth inhibition / toxicity); conditions: concentration: 10 µM; 24 h
// print number alone

CC[N+](CC)(CC)CCOc1ccc(C=Cc2ccccc2)cc1.[I-]    99.7

Prompt: Which cell number value belongs to Cl.O=C(O)C1CCCN(CCC=C(c2ccccc2)c2ccccc2)C1 (centres undefined) ?
Completion: 97.9

Prompt: Which cell number value belongs to CC(O)C(CO)NC(=O)C1CSSCC(NC(=O)C(N)Cc2ccccc2)C(=O)NC(Cc2ccccc2)C(=O)NC(Cc2c[nH]c3ccccc23)C(=O)NC(CCCCN)C(=O)NC(C(C)O)C(=O)N1 (centres undefined) [Octreotide] ?
Completion: 106

Prompt: Which cell number value belongs to CN(Cc1cc(Br)cc(Br)c1N)C1CCCCC1 [Bromhexine] ?
Completion: 98.8

* * *

system: TDF; experiment: H1.0 immunofluorescence intensity relative to DMSO (% of DMSO); higher = stronger H1.0 induction, active = 120 or more; settings: concentration: 10 µM; 24 h
Observation Type: H1.0 immunofluorescence intensity
// print number alone

Worked examples, 10 molecules total:
CC(N)=NCCC[C@H](N)C(=O)O.Cl [L-N5-(1-Iminoethyl)ornithine hydrochloride]    92.8
COc1ccc2c(c1)c(CC(=O)O)c(C)n2C(=O)c1ccc(Cl)cc1    91.3
CC(C)Cc1ccc(C(C)C(=O)NO)cc1 (centres undefined)    87.3
COc1cc2c3cc1Oc1c(OC)c(OC)cc4c1C(Cc1ccc(O)c(c1)Oc1ccc(cc1)CC3N(C)CC2)N(C)CC4.Cl.Cl (centres undefined)    104
NCCS(=O)O    96.6
CC(C)C(CO)Nc1nc(Nc2cccc(Cl)c2)c2ncn(C(C)C)c2n1 (centres undefined) [Purvalanol A]    98.3
CC1CC2C(C(O)CC3(C)C2CCC3(O)C(=O)CO)C2(C)C=CC(=O)C=C12 (centres undefined)    88.6
Br.CN1CCc2cc(O)c(O)cc2C(c2ccccc2)C1 (centres undefined)    89.8
COc1ccc(-c2cnc3c(-c4ccsc4)cnn3c2)cc1    89
O=C1NC(=O)c2c1c(-c1ccccc1)cc1[nH]c3ccc(O)cc3c21    101

Prompt: Which H1.0 immunofluorescence intensity value belongs to `CC(F)(F)CN1CCOc2c(nn(-c3ccccc3Cl)c2-c2ccc(Cl)cc2)C1=O` ?
Completion: 93.5

Prompt: Which H1.0 immunofluorescence intensity value belongs to O=C(C=Cc1ccc(O)c(O)c1)c1ccc(OC2OC(CO)C(O)C(O)C2O)c(O)c1O (centres undefined) ?
Completion: 92

Prompt: Which H1.0 immunofluorescence intensity value belongs to C=CC(N)CCC(=O)O (racemic) ?
Completion: 97.3

Prompt: Which H1.0 immunofluorescence intensity value belongs to Cc1cnc(NC(=O)C2=C([O-])c3ccccc3S(=O)(=O)N2C)s1.[Na+] [Meloxicam sodium] ?
Completion: 91.1

* * *

system: TDF; test: cell number relative to DMSO (% of DMSO); higher = more cells (less growth inhibition / toxicity); details: concentration: 10 µM; 24 h
Give True when the value for cell number is at least 100. Give False when it is less.

Prompt: Please check the record CCCCCCC=CCCCCCCCCC(=O)O [10(E)-Heptadecenoic acid] and state if its cell number is at or above 100.
Completion: False

Prompt: Please check the record NCCC(O)(P(=O)([O-])O)P(=O)([O-])O.O.O.O.O.O.[Na+].[Na+] [Pamidronate.2Na.5H2O] and state if its cell number is at or above 100.
Completion: False

Prompt: Please check the record `Nc1cccc(-c2cc3c(Oc4cccc(O)c4)ncnc3[nH]2)c1` and state if its cell number is at or above 100.
Completion: False

Prompt: Please check the record CCC(NC(C)C)C(O)c1ccc(O)c(O)c1.CS(=O)(=O)O (centres undefined) [Isotharine mesylate] and state if its cell number is at or above 100.
Completion: True

Prompt: Please check the record CC=CCC=CCCC(=O)C1OC1C(N)=O (centres undefined) and state if its cell number is at or above 100.
Completion: False

Prompt: Please check the record NC(=O)NO [Hydroxyurea] and state if its cell number is at or above 100.
Completion: True

Prompt: Please check the record `CCCCCC=CCC=CCC=CCC=CCCCC(=O)C(F)(F)F` and state if its cell number is at or above 100.
Completion: False

Prompt: Please check the record Cl.NCCCCC(=O)O [5-Aminovaleric acid hydrochloride] and state if its cell number is at or above 100.
Completion: True

* * *

# maps each entry to its cell number
test system: HCC1569; test: cell number relative to DMSO (% of DMSO); higher = more cells (less growth inhibition / toxicity); conditions: concentration: 10 µM; 24 h
// print number alone

Worked examples, 4 compounds total:
N#CC(=Cc1ccc(O)cc1)C(N)=C(C#N)C#N    101
[N-]=[N+]=Nc1ccc(C(=O)CSCC(NC(=O)CCC(N)C(=O)O)C(=O)NCC(=O)O)cc1 (centres undefined)    103
O=C(C=Cc1ccc(O)c(O)c1)OCCc1ccccc1 [Caffeic acid phenethyl ester]    69.1
CCCCCCC=CCCCCCCCCCC(=O)O [11(E)-Octadecenoic acid]    101

Prompt: Find the measured cell number: item `CC(=O)CCCCn1c(=O)c2c(ncn2C)n(C)c1=O` , target or system HCC1569.
Completion: 103

Prompt: Find the measured cell number: item CCCCCC=CCC=CCCCCCCCC(=O)O [9(E),12(E)-Octadecadienoic acid] , target or system HCC1569.
Completion: 96.5

Prompt: Find the measured cell number: item `CC1(NC2=NS(=O)(=O)c3sc(Cl)cc3N2)CC1` , target or system HCC1569.
Completion: 101

Prompt: Find the measured cell number: item `COc1ccccc1O` , target or system HCC1569.
Completion: 103

Prompt: Find the measured cell number: item `Nc1nc2ccc(Cl)cc2c2nc(-c3ccco3)nn12` , target or system HCC1569.
Completion: 99.2

* * *

system: HCC1569; test: cell number relative to DMSO (% of DMSO); higher = more cells (less growth inhibition / toxicity); settings: concentration: 10 µM; 24 h
# maps each entry to its cell number
// print number alone

COc1cc(C(=O)OCCC[NH+]2CCC[NH+](CCCOC(=O)c3cc(OC)c(OC)c(OC)c3)CC2)cc(OC)c1OC.[Cl-].[Cl-] [Dilazep hydrochloride]    94.8

API: the following record is the query input.
Prompt: Which cell number value belongs to C[N+](C)(C)CCC(=O)c1cccc2ccccc12.[I-] [2-(alpha-Naphthoyl)ethyltrimethylammonium iodide] ?
Completion: 92.7

* * *

system: HCC1569; assay: cell number relative to DMSO (% of DMSO); higher = more cells (less growth inhibition / toxicity); conditions: concentration: 10 µM; 24 h
Observation Type: cell number
// print number alone

Worked examples, 3 compounds total:
FC(F)(F)c1cc(NC(=S)Nc2ccc(Br)cc2-c2nn[nH]n2)cc(C(F)(F)F)c1    90.3
Cl.Cl.Cl.Ic1ccc(N2CCN(Cc3c[nH]c4ncccc34)CC2)cc1 [L-750,667 trihydrochloride]    103
O=C(O)CCc1nc(-c2ccccc2)c(-c2ccccc2)o1 [Oxaprozin]    104

Prompt: Which cell number value belongs to CN1CCN(C2Cc3ccccc3Sc3ccc(Cl)cc32)CC1.O=C(O)C=CC(=O)O (stereo not drawn) ?
Completion: 82

Prompt: Which cell number value belongs to Cc1cccc2c3c(ccc12)C1=C(C(=O)C3=O)C(C)CO1 (stereo not drawn) [Dihydrotanshinone] ?
Completion: 53.6

Prompt: Which cell number value belongs to CCN1CCCC1CNC(=O)c1cc(S(N)(=O)=O)ccc1OC (racemic) ?
Completion: 106

Prompt: Which cell number value belongs to O=C1C(=O)c2ccccc2C(O)=C1C1CCC(c2ccc(Cl)cc2)CC1 (stereo not drawn) [Atovaquone] ?
Completion: 100
